B1: HDV Ribozyme (parent)
chain: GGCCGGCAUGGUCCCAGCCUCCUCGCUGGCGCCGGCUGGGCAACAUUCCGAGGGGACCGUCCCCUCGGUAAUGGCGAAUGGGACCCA

variants of: B1; assay: self-cleavage, relative activity (ratio to wild type); higher = more cleavage; co-transcriptional
self-cleavage below 0.2 gives no (0); self-cleavage at or above it gives yes (1).

{"mut": "U20G C85A", "className": "yes (1)"}
{"mut": "G29U G38U", "className": "no (0)"}
{"mut": "C15G A71C", "className": "yes (1)"}
{"mut": "G1A G28A", "className": "no (0)"}
{"mut": "U47A G82C", "className": "yes (1)"}
{"mut": "C26A C30G", "className": "no (0)"}
{"mut": "C7G G17A", "className": "no (0)"}
{"mut": "G40U C84U", "className": "yes (1)"}
{"mut": "G6A G39U", "className": "yes (1)"}
{"mut": "C44U A77U", "className": "no (0)"}
{"mut": "A56U G81A", "className": "yes (1)"}
{"mut": "A42G A70U", "className": "yes (1)"}
{"mut": "G34C C48G", "className": "no (0)"}
{"mut": "A8C C49G", "className": "yes (1)"}
{"mut": "U12C C64U", "className": "yes (1)"}
{"mut": "C24G G40A", "className": "no (0)"}
{"mut": "C14G G76C", "className": "yes (1)"}
{"mut": "U12A G81U", "className": "no (0)"}
{"mut": "C36G C62G", "className": "no (0)"}
{"mut": "C26A C36A", "className": "no (0)"}
{"mut": "G1U G53A", "className": "yes (1)"}
{"mut": "G2C A87G", "className": "no (0)"}
{"mut": "U46G A71C", "className": "yes (1)"}
{"mut": "U23C C58A", "className": "yes (1)"}
